binders and their reported OD450 at 0.1 nM
Molecular target: T1, human MSLN-R2-his protein (human, UniProt Q13421 391-486)
T1 construct: Region 2 of human MSLN, His-tagged; also called human MSLN-R2 protein; hMSLN-R2-his; not shown: His tag
T1 sequence (Q13421 other isoform, or with tags, fused parts or gaps): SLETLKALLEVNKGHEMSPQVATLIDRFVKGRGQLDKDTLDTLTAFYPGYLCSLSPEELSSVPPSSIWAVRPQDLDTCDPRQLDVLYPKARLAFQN
Test: ELISA, coated MSLN-R2;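 further: chimeric antibodies bound to blocked coated plates for 2 h at 37 °C, TMB colour development stopped with HCl, with a negative control antibody for comparison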
Answer with a number only, understood to be in OD450.

Some binders with known OD450 at 0.1 nM results, for comparison:
Incoming: Which measured OD450 at 0.1 nM value corresponds to S009-F1.2.12 (antibody, human IgG1, kappa, V domains shown) VH: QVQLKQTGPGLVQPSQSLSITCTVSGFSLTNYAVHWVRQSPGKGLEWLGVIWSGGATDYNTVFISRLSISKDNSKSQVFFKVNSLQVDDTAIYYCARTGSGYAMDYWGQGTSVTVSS VL: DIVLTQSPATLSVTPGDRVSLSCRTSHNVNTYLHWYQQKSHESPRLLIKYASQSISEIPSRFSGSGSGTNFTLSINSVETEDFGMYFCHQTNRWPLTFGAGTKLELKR ?
Outgoing: 0.06

Incoming: Try this binder next: S009-F1.62.9 (antibody, human IgG1, kappa, V domains shown, Human-murine chimeric antibody, human IgG1/kappa constant regions) VH: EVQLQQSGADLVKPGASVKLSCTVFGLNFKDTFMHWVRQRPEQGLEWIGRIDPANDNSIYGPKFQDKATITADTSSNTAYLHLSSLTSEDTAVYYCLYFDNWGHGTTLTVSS VL: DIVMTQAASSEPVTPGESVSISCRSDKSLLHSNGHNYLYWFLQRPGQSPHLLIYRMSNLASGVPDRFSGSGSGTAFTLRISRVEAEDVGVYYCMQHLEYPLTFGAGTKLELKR
Outgoing: 0.06

Incoming: Thanks! And S009-F1.35.24 (antibody, human IgG1, kappa, V domains shown, Human-murine chimeric antibody, human IgG1/kappa constant regions) VH: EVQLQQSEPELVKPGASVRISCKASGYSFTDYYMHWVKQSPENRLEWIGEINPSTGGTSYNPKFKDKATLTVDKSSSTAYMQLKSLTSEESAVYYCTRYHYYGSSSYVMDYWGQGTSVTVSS VL: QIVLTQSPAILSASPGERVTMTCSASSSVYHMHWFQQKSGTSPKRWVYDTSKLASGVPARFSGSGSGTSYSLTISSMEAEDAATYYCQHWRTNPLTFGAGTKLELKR ?
Outgoing: 0.04

Next:
Incoming: Please look up its OD450 at 0.1 nM: S009-F1.57.1 (antibody, human IgG1, kappa, V domains shown, Human-murine chimeric antibody, human IgG1/kappa constant regions) VH: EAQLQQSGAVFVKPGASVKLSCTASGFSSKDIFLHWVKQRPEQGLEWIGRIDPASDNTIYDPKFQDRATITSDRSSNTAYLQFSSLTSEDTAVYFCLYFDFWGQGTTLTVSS VL: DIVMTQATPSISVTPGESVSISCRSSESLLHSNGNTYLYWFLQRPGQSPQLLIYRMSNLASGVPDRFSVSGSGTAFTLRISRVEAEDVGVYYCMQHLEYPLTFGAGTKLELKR
Outgoing: 0.07

Incoming: Same question, S009-F1.25.10 (antibody, human IgG1, kappa, V domains shown, Human-murine chimeric antibody, human IgG1/kappa constant regions) VH: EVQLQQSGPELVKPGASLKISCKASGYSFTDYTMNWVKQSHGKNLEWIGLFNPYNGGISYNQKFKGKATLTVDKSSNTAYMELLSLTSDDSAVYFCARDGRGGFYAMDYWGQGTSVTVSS VL: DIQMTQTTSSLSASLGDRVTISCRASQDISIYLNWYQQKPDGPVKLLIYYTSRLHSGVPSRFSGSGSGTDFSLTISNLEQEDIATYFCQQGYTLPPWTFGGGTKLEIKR this time
Outgoing: 0.04

Incoming: Same thing, different binder: S009-F1.59.1 (antibody, human IgG1, kappa, V domains shown, Human-murine chimeric antibody, human IgG1/kappa constant regions) VH: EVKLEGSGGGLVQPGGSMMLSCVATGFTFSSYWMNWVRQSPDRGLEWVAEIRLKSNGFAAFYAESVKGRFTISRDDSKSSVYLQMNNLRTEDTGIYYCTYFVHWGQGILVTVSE VL: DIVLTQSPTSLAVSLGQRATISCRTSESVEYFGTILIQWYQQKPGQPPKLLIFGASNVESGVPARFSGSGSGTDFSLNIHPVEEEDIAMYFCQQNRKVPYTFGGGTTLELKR
Outgoing: 0.05

Incoming: Also, S009-F1.56.1 (antibody, human IgG1, kappa, V domains shown, Human-murine chimeric antibody, human IgG1/kappa constant regions) VH: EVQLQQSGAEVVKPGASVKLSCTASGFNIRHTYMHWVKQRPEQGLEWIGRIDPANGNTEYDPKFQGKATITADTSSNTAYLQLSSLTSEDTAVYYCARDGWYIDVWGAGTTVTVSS VL: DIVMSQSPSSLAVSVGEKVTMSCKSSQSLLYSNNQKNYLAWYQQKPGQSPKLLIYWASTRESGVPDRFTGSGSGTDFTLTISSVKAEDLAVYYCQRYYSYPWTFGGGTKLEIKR please.
Outgoing: 0.88
